molecular target: Phospho-N-acetylmuramoyl-pentapeptide-transferase (Escherichia coli K-12, UniProt P0A6W3)
Sequence (P0A6W3 whole entry): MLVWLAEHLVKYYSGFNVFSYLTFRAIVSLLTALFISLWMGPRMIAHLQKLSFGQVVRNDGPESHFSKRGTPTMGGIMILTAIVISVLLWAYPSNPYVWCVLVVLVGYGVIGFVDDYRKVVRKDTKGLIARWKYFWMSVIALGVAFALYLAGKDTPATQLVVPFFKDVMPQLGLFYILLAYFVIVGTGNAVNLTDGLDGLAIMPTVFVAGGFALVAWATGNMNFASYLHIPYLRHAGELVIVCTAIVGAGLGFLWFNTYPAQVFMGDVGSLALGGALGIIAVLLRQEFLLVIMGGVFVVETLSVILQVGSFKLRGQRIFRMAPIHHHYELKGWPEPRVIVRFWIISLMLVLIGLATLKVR
Response field label takes fulfilled when IC50 is strictly below 60 nM and not fulfilled in all other cases.

These recorded examples may help you get a feel for the data.
Criterion: IC50 strictly below 60 nM. Is it met by CO[C@H]1[C@@H](O)[C@H](n2ccc(=O)[nH]c2=O)O[C@@H]1[C@@H](O[C@H]1OC(C(=O)Nc2ccc(Br)cc2)=C[C@H](O)[C@@H]1O)C(N)=O ? fulfilled

Criterion: IC50 strictly below 60 nM. Is it met by COc1ccc(CCNC(=O)C2=C[C@H](O)[C@H](O)[C@@H](O[C@@H](C(N)=O)[C@H]3O[C@@H](n4ccc(=O)[nH]c4=O)[C@H](O)[C@@H]3OC)O2)cc1OC ? fulfilled

Criterion: IC50 strictly below 60 nM. Is it met by CCCCCCCCCCCCCCNC(=O)C1=C[C@H](O)[C@H](O)[C@@H](O[C@@H](C(N)=O)[C@H]2O[C@@H](n3ccc(=O)[nH]c3=O)[C@H](O)[C@@H]2OC)O1 ? not fulfilled

Criterion: IC50 strictly below 60 nM. Is it met by CO[C@H]1[C@@H](O)[C@H](n2ccc(=O)[nH]c2=O)O[C@@H]1[C@@H](O[C@H]1OC(C(=O)NCc2ccccc2)=C[C@H](O)[C@@H]1O)C(N)=O ? not fulfilled

Criterion: IC50 strictly below 60 nM. Is it met by COC(=O)C1=C[C@H](O)[C@H](O)[C@@H](O[C@@H](C(N)=O)[C@H]2O[C@@H](n3ccc(=O)[nH]c3=O)[C@H](O)[C@@H]2OC)O1 ? fulfilled

Criterion: IC50 strictly below 60 nM. Is it met by CO[C@H]1[C@@H](O)[C@H](n2ccc(=O)[nH]c2=O)O[C@@H]1[C@@H](O[C@H]1OC(C(=O)Nc2ccc(F)cc2)=C[C@H](O)[C@@H]1O)C(N)=O ? not fulfilled

Criterion: IC50 strictly below 60 nM. Is it met by CCc1ccc(NC(=O)C2=C[C@H](O)[C@H](O)[C@@H](O[C@@H](C(N)=O)[C@H]3O[C@@H](n4ccc(=O)[nH]c4=O)[C@H](O)[C@@H]3OC)O2)cc1 ? fulfilled

Criterion: IC50 strictly below 60 nM. Is it met by CO[C@H]1[C@@H](O)[C@H](n2ccc(=O)[nH]c2=O)O[C@@H]1[C@@H](O[C@H]1OC(C(=O)NCc2ccco2)=C[C@H](O)[C@@H]1O)C(N)=O ? not fulfilled

New cases:
Criterion: IC50 strictly below 60 nM. Is it met by CO[C@H]1[C@@H](O)[C@H](n2ccc(=O)[nH]c2=O)O[C@@H]1[C@@H](O[C@H]1OC(C(=O)Nc2nc(C(C)(C)C)cs2)=C[C@H](O)[C@@H]1O)C(N)=O ? fulfilled

Criterion: IC50 strictly below 60 nM. Is it met by COc1ccc(CNC(=O)C2=C[C@H](O)[C@H](O)[C@@H](O[C@@H](C(N)=O)[C@H]3O[C@@H](n4ccc(=O)[nH]c4=O)[C@H](O)[C@@H]3OC)O2)cc1 ? not fulfilled

Criterion: IC50 strictly below 60 nM. Is it met by CO[C@H]1[C@@H](O)[C@H](n2ccc(=O)[nH]c2=O)O[C@@H]1[C@@H](O[C@H]1OC(C(=O)NCCc2cccs2)=C[C@H](O)[C@@H]1O)C(N)=O ? fulfilled

Criterion: IC50 strictly below 60 nM. Is it met by CO[C@H]1[C@@H](O)[C@H](n2ccc(=O)[nH]c2=O)O[C@@H]1[C@@H](O[C@H]1OC(C(=O)Nc2ccccc2OCc2ccccc2)=C[C@H](O)[C@@H]1O)C(N)=O ? fulfilled

Criterion: IC50 strictly below 60 nM. Is it met by CO[C@H]1[C@@H](O)[C@H](n2ccc(=O)[nH]c2=O)O[C@@H]1[C@@H](O[C@H]1OC(C(=O)Nc2ccc(C)cc2)=C[C@H](O)[C@@H]1O)C(N)=O ? fulfilled

Criterion: IC50 strictly below 60 nM. Is it met by COc1cc(CNC(=O)C2=C[C@H](O)[C@H](O)[C@@H](O[C@@H](C(N)=O)[C@H]3O[C@@H](n4ccc(=O)[nH]c4=O)[C@H](O)[C@@H]3OC)O2)cc(OC)c1OC ? not fulfilled

Criterion: IC50 strictly below 60 nM. Is it met by CCc1ccccc1NC(=O)C1=C[C@H](O)[C@H](O)[C@@H](O[C@@H](C(N)=O)[C@H]2O[C@@H](n3ccc(=O)[nH]c3=O)[C@H](O)[C@@H]2OC)O1 ? not fulfilled

Criterion: IC50 strictly below 60 nM. Is it met by CO[C@H]1[C@@H](O)[C@H](n2ccc(=O)[nH]c2=O)O[C@@H]1[C@@H](O[C@H]1OC(C(=O)NCCc2ccc(O)cc2)=C[C@H](O)[C@@H]1O)C(N)=O ? not fulfilled
